assay.protocol: Kinetic solubility in phosphate-buffered saline, pH 7.4
Format: physicochemical
test.parameters: phosphate-buffered saline, 25 °C, pH 7.4, aqueous buffer, kinetic from dmso stock, Table S1; mean of 2 incubations; 25 °C, 2 h, 2% DMSO; effective range approx. 2-400 μM; read-out: PBS solubility, pH 7.4, Mean
experimental.readout: solubility at 2 h (µM)

Here is how some compounds turned out for solubility at 2 h.
- compound: "O=C(N[C@@H]1[C@@H]2CC[C@@]1(c1ccc(Cl)cc1)C2)c1cccnc1Cl (relative stereo) [Compound 30]"
  unit.string: "µM"
  solubility at 2 h: 17
- compound: "O=C(NC1CCN(CCCCC2(C(=O)NCC(F)(F)F)c3ccccc3-c3ccccc32)CC1)c1ccccc1-c1ccc(C(F)(F)F)cc1 [Lomitapide, reference compound]"
  unit.string: "µM"
  solubility at 2 h: 3
- compound: "O=C(NC1CCN(CCCCC2(C(=O)NCC(F)(F)F)c3ccccc3-c3ccccc32)CC1)[C@@H]1[C@@H]2CC[C@@]1(c1ccc(C(F)(F)F)cc1)C2 (relative stereo) [Compound 34]"
  unit.string: "µM"
  solubility at 2 h: 2
- compound: "O=C(O)C1C2CC1(C(=O)Nc1ccc(S(=O)(=O)Nc3nccs3)cc1)CO2 (stereo not drawn) [Compound 33]"
  unit.string: "µM"
  solubility at 2 h: 101

I = O=C(O)[C@@H]1[C@@H]2CC[C@@]1(C(=O)Nc1ccc(S(=O)(=O)Nc3nccs3)cc1)C2 (relative stereo) [Compound 32]
II = O=C(NC1CCN(CCCCC2(C(=O)NCC(F)(F)F)c3ccccc3-c3ccccc32)CC1)[C@@H]1[C@H]2C[C@]1(c1ccc(C(F)(F)F)cc1)CO2 (relative stereo) [Compound 35]
Query: Hi, I'm comparing two records. Which one has the lower solubility at 2 h, I or II ? Which one? Tell me its label.
Result: II
(II: 3 µM, I: 158 µM)

---

Measured lowest inhibition concentration accompanies every entry in the list below.
Test system: Fusarium oxysporum
assay.protocol: Antifungal activity, agar well diffusion method
Type: cell-based
test.parameters: agar well diffusion; tested 0.0039-1.0 mg/mL
Report only the number, with the unit mg/mL understood.

- compound: "Cn1cc(C(=O)N[C@@H]2[C@H]3C[C@]2(c2cc(F)c(F)c(F)c2)CO3)c(C(F)F)n1 (relative stereo) [Compound 29]"
  experimental.readout: "lowest inhibition concentration"
  unit.string: "mg/mL"
  result.value: 0.0039

Continue with the next compound.
Query: GET /values?readout=lowest inhibition concentration&item= O=C(N[C@@H]1[C@H]2C[C@]1(c1ccc(Cl)cc1)CO2)c1cccnc1Cl (relative stereo) [Compound 31]
Result: 0.0039

---

assay.protocol: physchem
Format: physicochemical
test.parameters: pH 7.4, logD (7.4)
experimental.readout: logD at 1 h

- compound: "O=C(Nc1ccccc1-c1ccc(Cl)cc1)c1cccnc1Cl [Boscalid, reference compound]"
  experimental.readout: "logD at 1 h"
  result.value: 3.6

a = Cn1cc(C(=O)N[C@@H]2[C@H]3C[C@]2(c2cc(F)c(F)c(F)c2)CO3)c(C(F)F)n1 (relative stereo)
b = Cn1cc(C(=O)N[C@@H]2[C@@H]3CC[C@@]2(c2cc(F)c(F)c(F)c2)C3)c(C(F)F)n1 (relative stereo)
Query: Looking only at measured logD at 1 h, which entry is lower, a or b ? Lab note: record the label of whichever item you select.
Result: a
(a: 2.8, b: 4.3)

---

assay.protocol: Metabolic stability in human liver microsomes
Format: in vitro ADME
test.parameters: both sexes, human, liver microsomes, pH 7.4, human liver microsomes, 0.42 mg protein per ml; Table S3; * approximate due to high stability; read-out: Clint
experimental.readout: microsomal CLint at 2 µM (µL/min/mg)

- compound: "Cn1cc(C(=O)N[C@@H]2[C@H]3C[C@]2(c2cc(F)c(F)c(F)c2)CO3)c(C(F)F)n1 (relative stereo)"
  unit.string: "µL/min/mg"
  microsomal CLint at 2 µM: 23

I = O=C(NC1CCN(CCCCC2(C(=O)NCC(F)(F)F)c3ccccc3-c3ccccc32)CC1)[C@@H]1[C@H]2C[C@]1(c1ccc(C(F)(F)F)cc1)CO2 (relative stereo)
II = O=C(N[C@@H]1[C@@H]2CC[C@@]1(c1ccc(Cl)cc1)C2)c1cccnc1Cl (relative stereo)
Query: Of I and II , which carries the smaller reported microsomal CLint at 2 µM figure? Please indicate the selected item by its label.
Result: II
(II: 12 µL/min/mg, I: 87 µL/min/mg)

---

assay.protocol: physchem
Assay type: physicochemical
test.parameters: pH 7.4, LogD, pH 7.4, incubation 1
experimental.readout: logD at 1 h

- compound: "O=C(Nc1ccccc1-c1ccc(Cl)cc1)c1cccnc1Cl [Boscalid, reference compound]"
  logD at 1 h: 3.56

P = Cn1cc(C(=O)N[C@@H]2[C@@H]3CC[C@@]2(c2cc(F)c(F)c(F)c2)C3)c(C(F)F)n1 (relative stereo) [Compound 28]
Q = COC(=O)Nc1nc2ccc(C(=O)c3ccccc3)cc2[nH]1 [Mebendazole, reference compound]
Query: Of P and Q , which shows the smaller logD at 1 h value? Field: selected label. Fill in the label of the entry you choose.
Result: Q

---

assay.protocol: Kinetic solubility in phosphate-buffered saline, pH 7.4
Assay type: physicochemical
test.parameters: phosphate-buffered saline, 25 °C, pH 7.4, aqueous buffer, kinetic from dmso stock, Table S1; incubation 1; read-out: PBS solubility, pH 7.4, Incubation 1
experimental.readout: solubility at 2 h (µM)

- compound: "O=C(NC1CCN(CCCCC2(C(=O)NCC(F)(F)F)c3ccccc3-c3ccccc32)CC1)[C@@H]1[C@@H]2CC[C@@]1(c1ccc(C(F)(F)F)cc1)C2 (relative stereo)"
  unit.string: "µM"
  solubility at 2 h: 2

a = O=C(NC1CCN(CCCCC2(C(=O)NCC(F)(F)F)c3ccccc3-c3ccccc32)CC1)[C@@H]1[C@H]2C[C@]1(c1ccc(C(F)(F)F)cc1)CO2 (relative stereo)
b = Cn1cc(C(=O)N[C@@H]2[C@@H]3CC[C@@]2(c2cc(F)c(F)c(F)c2)C3)c(C(F)F)n1 (relative stereo)
Query: Form: Entry with minimum solubility at 2 h (choose one): a / b Returns: label corresponding to the selected item.
Result: a
(a: 2 µM, b: 35 µM)

---

System: Fusarium verticillioides
assay.protocol: Antifungal activity, agar well diffusion method
Type: cell-based
test.parameters: Fusarium verticillioides; 0.03125 mg/mL; 0 = absence of antifungal activity; read-out: Diameter of inhibition zone
# zone of inhibition at 31.25 µg/mL annotations
Report as a plain number; the unit mm is understood.

- compound: "O=C(N[C@@H]1[C@@H]2CC[C@@]1(c1ccc(Cl)cc1)C2)c1cccnc1Cl (relative stereo)"
  unit.string: "mm"
  result.value: 30

Query: Tell me the measured zone of inhibition at 31.25 µg/mL of Cn1cc(C(=O)N[C@@H]2[C@H]3C[C@]2(c2cc(F)c(F)c(F)c2)CO3)c(C(F)F)n1 (relative stereo) , please.
Result: 26

Query: Look up zone of inhibition at 31.25 µg/mL for this compound: O=C(N[C@@H]1[C@H]2C[C@]1(c1ccc(Cl)cc1)CO2)c1cccnc1Cl (relative stereo)
Result: 0

Query: Value lookup for zone of inhibition at 31.25 µg/mL; key = Cn1cc(C(=O)N[C@@H]2[C@@H]3CC[C@@]2(c2cc(F)c(F)c(F)c2)C3)c(C(F)F)n1 (relative stereo)
Result: 41

---

assay.protocol: physchem
Format: physicochemical
test.parameters: pH 7.4, LogD, pH 7.4 (mean)
experimental.readout: logD at 1 h

- compound: "O=C(N[C@@H]1[C@@H]2CC[C@@]1(c1ccc(Cl)cc1)C2)c1cccnc1Cl (relative stereo)"
  logD at 1 h: 2.66
- compound: "O=C(O)c1ccccc1C(=O)Nc1ccc(S(=O)(=O)Nc2nccs2)cc1 [Phthalylsulfathiazole, reference compound]"
  logD at 1 h: -1.04
- compound: "O=C(Nc1ccccc1-c1ccc(Cl)cc1)c1cccnc1Cl [Boscalid, reference compound]"
  logD at 1 h: 3.55
- compound: "O=C(N[C@@H]1[C@H]2C[C@]1(c1ccc(Cl)cc1)CO2)c1cccnc1Cl (relative stereo)"
  logD at 1 h: 3.5

P = O=C(O)C1C2CC1(C(=O)Nc1ccc(S(=O)(=O)Nc3nccs3)cc1)CO2 (stereo not shown)
Q = Cn1cc(C(=O)N[C@@H]2[C@H]3C[C@]2(c2cc(F)c(F)c(F)c2)CO3)c(C(F)F)n1 (relative stereo)
Query: Which value of logD at 1 h is greater, the one for P or the one for Q ? # reply format: chosen label
Result: Q

---

Test system: Fusarium oxysporum
assay.protocol: Antifungal activity, agar well diffusion method
Type: cell-based
test.parameters: Fusarium oxysporum; 0.0156 mg/mL; zones st (static growth); read-out: Diameter of inhibition zone
experimental.readout: zone of inhibition at 15.6 µg/mL (mm)
Quick note: give the figure in mm, leave out the unit.

// solved cases for zone of inhibition at 15.6 µg/mL follow
- molecule: "O=C(N[C@@H]1[C@H]2C[C@]1(c1ccc(Cl)cc1)CO2)c1cccnc1Cl (relative stereo)"
  unit.string: "mm"
  zone of inhibition at 15.6 µg/mL: 14
- molecule: "O=C(N[C@@H]1[C@@H]2CC[C@@]1(c1ccc(Cl)cc1)C2)c1cccnc1Cl (relative stereo)"
  unit.string: "mm"
  zone of inhibition at 15.6 µg/mL: 20
- molecule: "Cn1cc(C(=O)N[C@@H]2[C@@H]3CC[C@@]2(c2cc(F)c(F)c(F)c2)C3)c(C(F)F)n1 (relative stereo)"
  unit.string: "mm"
  zone of inhibition at 15.6 µg/mL: 26

Query: // query zone of inhibition at 15.6 µg/mL value for entry Cn1cc(C(=O)N[C@@H]2[C@H]3C[C@]2(c2cc(F)c(F)c(F)c2)CO3)c(C(F)F)n1 (relative stereo)
Result: 14

Provenance of the data: paper PMC10396955
